Target: T1, E. coli Exonuclease I (E. coli, UniProt P04995 1-475)
T1 sequence (looked up): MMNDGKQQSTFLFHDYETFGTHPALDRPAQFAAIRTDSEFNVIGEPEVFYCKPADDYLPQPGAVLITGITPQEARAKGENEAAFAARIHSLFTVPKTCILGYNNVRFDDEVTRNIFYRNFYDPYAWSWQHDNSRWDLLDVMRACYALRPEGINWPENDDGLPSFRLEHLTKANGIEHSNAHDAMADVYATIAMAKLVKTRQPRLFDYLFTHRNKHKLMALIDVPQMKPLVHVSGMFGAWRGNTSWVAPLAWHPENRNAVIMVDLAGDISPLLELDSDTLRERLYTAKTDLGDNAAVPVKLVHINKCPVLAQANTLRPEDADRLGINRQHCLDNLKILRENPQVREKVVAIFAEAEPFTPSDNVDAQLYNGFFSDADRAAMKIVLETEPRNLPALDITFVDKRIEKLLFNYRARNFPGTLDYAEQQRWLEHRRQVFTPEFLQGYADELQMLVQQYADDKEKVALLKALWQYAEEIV
No end group written: not given here. fluorescein = fluorescein (label on the N-terminus)
Parameter: Kd

[[record]]
binder = "fluorescein-WMDFDDDIPF [F-SSB-Ct (SSB-Ct with an N-terminal fluorescein)]"
parameter = "Kd"
reported_value = "178 nM"

